assay: Plasma and brain homogenate protein binding by equilibrium dialysis; format: in vitro ADME, mouse; details: mouse brain homogenate, read-out: fraction unbound in brain (fu,brain)
Property: fraction unbound
Numbers only.

Please give the measured fraction unbound for this compound: [2H]C([2H])([2H])c1c(Oc2c(F)cc(C#N)cc2F)nc(N)nc1C(F)(F)F
0.011

====

Assay: In vivo determination of Kp,uu,brain in mice
Conditions: male, CD1 (ICR), plasma; mouse, 100 mg/kg oral, 2 h post dose; read-out: Total plasma conc. (Ctotal, plasma) ± SD
Experimental: In Vivo Determination of Kp,uu,Brain in Mice Unbound brain-to-plasma partition coefficient (Kp,uu,brain) is one of the key pharmacokinetic parameters for evaluating a compound's ability to cross the blood-brain barrier (BBB). It is typically measured in pre-clinical species using the following methodology. […] Pharmacokinetic sampling: Plasma and brain samples obtained were analyzed for Example 1 using an LC-MS/MS method (Q2 Solutions, Indianapolis, IN, USA). […]
Property: concentration at 2 h
Your reply should be a number followed by the unit it is expressed in.

Request the reported concentration at 2 h associated with [2H]C([2H])([2H])c1c(Oc2c(F)cc(C#N)cc2F)nc(N)nc1C(F)(F)F
18.8 µM

====

test: Plasma and brain homogenate protein binding by equilibrium dialysis; format: in vitro ADME, mouse; conditions: mouse plasma, read-out: fraction unbound in plasma (fu,plasma)
Property: fraction unbound

Give the measured fraction unbound of [2H]C([2H])([2H])c1c(Oc2c(F)cc(C#N)cc2F)nc(N)nc1C(F)(F)F [Example 1] .
0.0667
